Reported IC50, CAK1 (Candida albicans, UniProt A0A1D8PH53).

Identify the measured IC50 of O=C(CSc1ccccn1)c1ccc(OCc2ccc([N+](=O)O)cc2)cc1 for CAK1 (Candida albicans, UniProt A0A1D8PH53). < 10 µM

# returns recorded IC50 (system: CAK1 (Candida albicans, UniProt A0A1D8PH53)) for CCOC(=O)c1c(NC(=O)c2c(OC)cccc2OC)sc(C)c1C < 50 µM

Look up IC50 with CAK1 (Candida albicans, UniProt A0A1D8PH53) for this molecule: CCOC(=O)C1=C(C)N(Cc2ccccc2)C(=O)NC1c1ccc(OC(F)(F)F)cc1 (centres unmarked) < 50 µM

For CAK1 (Candida albicans, UniProt A0A1D8PH53), provide IC50 of O=C1CCc2cc(C(=O)CSc3ccc(Cl)cc3Cl)ccc2N1 please. < 50 µM

Recall the recorded IC50 for CCOC(=O)c1c(NC(=O)c2c(OC)cccc2OC)sc2c1CCC(C)C2 (centres unmarked) with CAK1 (Candida albicans, UniProt A0A1D8PH53) and state it. > 50 µM

What is its IC50 for CAK1 (Candida albicans, UniProt A0A1D8PH53)? Entry: Cc1onc(-c2c(Cl)cccc2Cl)c1C(=O)Nc1cccc(-c2ncon2)c1 < 50 µM

Provide the documented IC50 with CAK1 (Candida albicans, UniProt A0A1D8PH53) as the system for O=C(c1cc(C(O)(Cn2ccnc2)c2ccccc2)ccc1-c1ccccc1)N(Cc1ccccc1)Cc1ccccc1 (centres unmarked) < 50 µM

Form field - read-out: IC50; system: CAK1 (Candida albicans, UniProt A0A1D8PH53); submitted item: O=C(c1ccccc1OCC1COC(Cn2ccnc2)(c2ccc(Cl)cc2Cl)O1)N(Cc1ccccc1)Cc1ccccc1 (centres unmarked) < 10 µM
